# system: human acetyl-CoA carboxylase 2 (ACC2) (Homo sapiens)
# Construct: The cDNA encoding amino acids 144 to 2458 of human acetyl-CoA carboxylase 2; made in house; host or cells: Sf9 insect cells (baculovirus, pFastBac1)
# Sequence (O00763 144-2458): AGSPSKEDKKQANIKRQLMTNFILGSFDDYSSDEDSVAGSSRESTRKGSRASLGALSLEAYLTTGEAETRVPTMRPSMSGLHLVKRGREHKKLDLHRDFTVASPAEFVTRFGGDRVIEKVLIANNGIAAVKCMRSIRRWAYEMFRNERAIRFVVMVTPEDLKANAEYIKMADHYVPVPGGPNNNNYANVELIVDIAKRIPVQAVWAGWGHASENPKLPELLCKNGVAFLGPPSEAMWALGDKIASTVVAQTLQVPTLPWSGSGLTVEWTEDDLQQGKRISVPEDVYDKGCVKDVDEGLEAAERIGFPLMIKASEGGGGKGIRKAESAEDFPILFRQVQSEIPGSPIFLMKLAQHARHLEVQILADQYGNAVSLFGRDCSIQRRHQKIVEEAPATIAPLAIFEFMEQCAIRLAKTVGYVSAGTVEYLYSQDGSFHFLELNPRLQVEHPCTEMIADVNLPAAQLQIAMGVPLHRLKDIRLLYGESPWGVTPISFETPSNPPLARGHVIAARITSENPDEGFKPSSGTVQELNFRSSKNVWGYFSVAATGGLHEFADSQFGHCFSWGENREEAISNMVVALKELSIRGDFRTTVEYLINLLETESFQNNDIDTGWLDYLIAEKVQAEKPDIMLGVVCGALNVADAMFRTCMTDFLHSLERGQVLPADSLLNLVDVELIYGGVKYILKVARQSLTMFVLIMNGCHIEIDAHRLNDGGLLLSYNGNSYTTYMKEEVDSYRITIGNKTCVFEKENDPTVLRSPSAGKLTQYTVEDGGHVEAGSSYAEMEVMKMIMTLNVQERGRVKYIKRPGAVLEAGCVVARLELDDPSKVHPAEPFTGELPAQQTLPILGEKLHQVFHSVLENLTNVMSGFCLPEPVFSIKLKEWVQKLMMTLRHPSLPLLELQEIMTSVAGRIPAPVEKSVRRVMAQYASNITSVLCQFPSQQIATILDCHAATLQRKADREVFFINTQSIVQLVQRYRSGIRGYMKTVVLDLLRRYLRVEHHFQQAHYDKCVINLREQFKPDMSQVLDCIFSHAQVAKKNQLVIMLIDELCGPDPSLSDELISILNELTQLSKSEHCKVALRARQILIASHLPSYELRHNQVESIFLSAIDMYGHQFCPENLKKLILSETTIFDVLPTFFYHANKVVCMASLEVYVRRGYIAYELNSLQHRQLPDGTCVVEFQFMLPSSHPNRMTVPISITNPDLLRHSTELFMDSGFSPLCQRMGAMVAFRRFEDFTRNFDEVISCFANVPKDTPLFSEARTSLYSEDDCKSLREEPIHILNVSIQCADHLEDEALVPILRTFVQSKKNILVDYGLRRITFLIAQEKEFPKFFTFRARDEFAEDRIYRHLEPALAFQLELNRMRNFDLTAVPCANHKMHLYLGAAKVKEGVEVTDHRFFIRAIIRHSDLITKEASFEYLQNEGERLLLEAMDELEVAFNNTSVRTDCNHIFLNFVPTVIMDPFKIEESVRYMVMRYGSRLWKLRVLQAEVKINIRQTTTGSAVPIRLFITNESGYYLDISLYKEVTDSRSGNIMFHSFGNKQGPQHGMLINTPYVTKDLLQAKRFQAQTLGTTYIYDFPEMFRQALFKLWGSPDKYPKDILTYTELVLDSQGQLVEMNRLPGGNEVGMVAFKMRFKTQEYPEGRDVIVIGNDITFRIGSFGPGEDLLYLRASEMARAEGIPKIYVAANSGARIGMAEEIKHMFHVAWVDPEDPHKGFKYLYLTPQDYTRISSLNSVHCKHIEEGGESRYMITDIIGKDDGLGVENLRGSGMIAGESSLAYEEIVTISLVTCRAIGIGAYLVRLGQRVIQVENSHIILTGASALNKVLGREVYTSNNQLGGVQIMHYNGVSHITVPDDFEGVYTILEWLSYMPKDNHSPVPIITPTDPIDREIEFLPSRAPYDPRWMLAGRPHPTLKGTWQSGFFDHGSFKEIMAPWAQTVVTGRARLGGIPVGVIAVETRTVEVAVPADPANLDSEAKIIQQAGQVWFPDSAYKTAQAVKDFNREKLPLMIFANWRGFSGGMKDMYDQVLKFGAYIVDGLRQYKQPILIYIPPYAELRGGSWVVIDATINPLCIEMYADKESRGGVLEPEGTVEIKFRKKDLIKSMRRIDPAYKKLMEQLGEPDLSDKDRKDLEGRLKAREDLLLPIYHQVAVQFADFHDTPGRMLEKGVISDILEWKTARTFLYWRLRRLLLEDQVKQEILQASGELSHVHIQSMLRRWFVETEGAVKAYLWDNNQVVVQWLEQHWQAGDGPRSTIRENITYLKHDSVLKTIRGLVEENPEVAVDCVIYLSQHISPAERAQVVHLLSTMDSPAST
# protocolNotes: Acetyl-CoA carboxylase enzyme assay (malonyl-CoA formation by LC/MS/MS)
# Format: biochemical
# measurementConditions: recombinant human ACC2 (aa 144-2458); read-out: IC50 ACC2
The entries below are paired with their reported IC50.
observable: IC50 (nM)

> print(dat)
                                   compound                                    system  observable  unitsymbol  ltgteq  quantitativeresult
1  CC(NC(=O)[C@H]1CC[C@H](NS(=O)(=O)c2ccc3[nH]c(-c4cccnc4)cc3c2)CC1)c1ccncc1 (stereo partly shown)  human acetyl-CoA carboxylase 2 (ACC2) (Homo sapiens)        IC50          nM       =                 256
2  COC(=O)c1cccc(-c2nc3cc(S(=O)(=O)N[C@H]4CC[C@H](c5nnc(C(C)(C)C)o5)CC4)ccc3[nH]2)c1  human acetyl-CoA carboxylase 2 (ACC2) (Homo sapiens)        IC50          nM       =                 971
3  CC(C)OC(=O)c1ccc(NS(=O)(=O)c2ccc3[nH]c(Nc4ccc5c(c4)OCCO5)nc3c2)cc1  human acetyl-CoA carboxylase 2 (ACC2) (Homo sapiens)        IC50          nM       =                 178
4  O=C([C@H]1CC[C@H](NS(=O)(=O)c2ccc3oc4ccccc4c3c2)CC1)N1CCNC[C@@H]1c1ccccc1  human acetyl-CoA carboxylase 2 (ACC2) (Homo sapiens)        IC50          nM       =                  20
5  CC(C)(C)c1nnc([C@H]2CC[C@H](NS(=O)(=O)c3ccc4[nH]c(-c5ccc(N6CCOCC6)cc5)nc4c3)CC2)o1  human acetyl-CoA carboxylase 2 (ACC2) (Homo sapiens)        IC50          nM       =                 267
6  Cc1ccccc1-c1cc2ccc(S(=O)(=O)NC3CCC(C(=O)N4CCOCC4c4ccccc4)CC3)cc2[nH]1 (stereo not shown)  human acetyl-CoA carboxylase 2 (ACC2) (Homo sapiens)        IC50          nM       <                  10
7  CCOC(=O)[C@H]1CCCN1C(=O)[C@H]1CC[C@H](NS(=O)(=O)c2ccc3cc(-c4ccccc4)n(C)c3c2)CC1  human acetyl-CoA carboxylase 2 (ACC2) (Homo sapiens)        IC50          nM       =                 720
